- Test system: SF-539
- experimental details: NCI tumour cell line growth inhibition, 48 h
Activity calls are given as the source filed them. Cut-off read from the data, not from the text of the source: active = GI50 up to about 1.1 µM and inactive = higher.
metric: GI50

Exercise: Requested field: GI50. Item: COC1C(=O)N(SC)C1c1ccccc1Cl (stereo not given)
Key: 19.6 µM (inactive)

Exercise: Requested field: GI50. Item: NC(Cc1ccccc1)C(=O)OCN1C(=O)C2C3C=CC(C2C1=O)C1C2C(=O)N(COC(=O)C(N)Cc4ccccc4)C(=O)C2C31 (stereo not given)
Key: 22.2 µM (inactive)

====

- Test system: UO-31
- experimental details: NCI tumour cell line growth inhibition, 48 h
Activity calls are given as the source filed them. Rule as the data show it: active = GI50 up to about 1.1 µM and inactive = higher.
Give your call using only these classes: True (active), False (inactive)

# compound, answer label
measured = [
    ("O=C1CC(=O)NC(NN2C(=O)/C(=C/c3ccc(Cl)c(Cl)c3)N=C2c2ccccc2)=N1", "False"),
    ("O=c1c2ccccc2[nH]c2ccc3c(Cl)n[nH]c3c12", "False"),
    ("CCCC(=O)CC(C)C(=O)C(=O)NC12CC3CC(CC(C3)C1)C2 (stereo not given)", "False"),
    ("CN(CCc1ccc(Cl)c(Cl)c1)CCN(C)CCN1CCCC1", "False"),
    ("CN(N=O)C(=O)ON1C(=O)CCC1=O", "False"),
]

Exercise: Which result was noted for this compound in the test: CC(NNC(=O)c1ccncc1)c1cccc(C(F)(F)F)c1 (stereo not given)
Key: False

Exercise: Which result was noted for this compound in the test: N#CCN1CCCCCc2ccccc21
Key: False

Exercise: Which result was noted for this compound in the test: Cc1c2ccncc2c(C)c2c1[nH]c1ccc(OCCN(C)C)cc12
Key: True

Exercise: Which result was noted for this compound in the test: O=[N+]([O-])C(C(Cl)=C(Cl)Cl)=C(N(Cc1ccccc1)Cc1ccccc1)N(Cc1ccccc1)Cc1ccccc1
Key: False

Exercise: Which result was noted for this compound in the test: CNC(=O)C(NC(=O)[C@H](CC(C)C)NC(=O)[C@@H](S)CCN1C(=O)N(C)C(C)(C)C1=O)C(C)(C)C (stereo not given in full)
Key: False

====

- Tested on: A549
- experimental details: NCI tumour cell line growth inhibition, 48 h
The source made the active and inactive calls. Cut-off read from the data, not from the text of the source: active = GI50 up to about 1.1 µM and inactive = higher.
metric: GI50

Consider the worked cases shown below.
# compound, GI50
measured = [
    ("O=S(=O)(c1ccc(Cl)cc1)c1ccccc1C1=NCCN1", "> 100 µM (inactive)"),
    ("O=C1N=C2SC(=S)N=C(S)N2NC12c1ccccc1-c1ccccc12", "> 10 µM (inactive)"),
    ("S=C(NCc1ccccc1)N/N=C/c1ccccn1", "4.29 µM (inactive)"),
    ("O=C(O)c1cc(-c2ccncc2)nc2ccccc12", "> 100 µM (inactive)"),
    ("CC(=O)Nc1cc(CN2CCCCC2)c(O)c2ncccc12", "32.9 µM (inactive)"),
]

Could you now look at the following compound, please?
Exercise: Requested field: GI50. Item: CCOC(=O)C(C[Si](C)(C)C)P(=O)(OCC)OCC (stereo unspecified)
Key: > 100 µM (inactive)

====

- Tested on: ACHN
- experimental details: NCI tumour cell line growth inhibition, 48 h
Active and inactive are the calls of the source. Cut-off read from the data, not from the text of the source: active = GI50 up to about 1.1 µM and inactive = higher.
metric: GI50

Consider the worked cases shown below.
# compound, system under test, GI50
rows = [
    ("O=c1[nH]c2ccc(CC(=S)N3CCOCC3)cc2o1", "ACHN", "> 100 µM (inactive)"),
    ("COc1ccc(C2CC(c3c(C)nn(-c4ccccc4)c3-c3ccc(C)cc3O)=NN2c2ccccc2)cc1 (stereo not given)", "ACHN", "13.9 µM (inactive)"),
    ("C/C(=C\\COP(=O)(O)OP(=O)(O)O)CCCOCc1ccccc1", "ACHN", "> 100 µM (inactive)"),
    ("NC(Cc1ccccc1)C(=O)OCN1C(=O)C2C3C=CC(C2C1=O)C1C2C(=O)N(COC(=O)C(N)Cc4ccccc4)C(=O)C2C31 (stereo not given)", "ACHN", "23.1 µM (inactive)"),
    ("CC(=O)Nc1ccc(/C=C2\\N=C(c3ccccc3)OC2=O)cc1", "ACHN", "> 100 µM (inactive)"),
]

Exercise: Requested field: GI50. Item: C/C(CC(=O)CCC(=O)Nc1cccc(C(F)(F)F)c1)=N\NC(=O)NN
Key: > 100 µM (inactive)

Exercise: Requested field: GI50. Item: O=S1(=O)c2ccccc2NC(c2ccc3ccccc3c2)CC1c1ccccc1F (stereo not given)
Key: > 100 µM (inactive)

Exercise: Requested field: GI50. Item: CC1SC2=NC3=C(c4ccccc4C3=O)C(c3ccccc3Cl)N2C1=O (stereo not given)
Key: > 100 µM (inactive)

Exercise: Requested field: GI50. Item: CC(=O)CCNc1ccc(-c2cc(-c3ccc(N(C)C)cc3)nc3ccc4ccccc4c23)cc1
Key: 17.8 µM (inactive)

Exercise: Requested field: GI50. Item: Cc1ccc2c(c1)C(=O)C(Cc1ccccc1C(=O)O)C2 (stereo not given)
Key: > 100 µM (inactive)

Exercise: Requested field: GI50. Item: CN(C)NC(=S)NC12CC3CC(CC(C3)C1)C2
Key: > 100 µM (inactive)
